Data credit: the supplement of paper PMC7877785

Some sequences, each annotated with its measured self-splicing fitness (ln).
Assay: self-splicing fitness, log relative to wild type (ln ratio); higher = more splicing; Tetrahymena group I intron in knt gene, E. coli kanamycin selection, DiMSum; sequences stand for … in CUCUCU…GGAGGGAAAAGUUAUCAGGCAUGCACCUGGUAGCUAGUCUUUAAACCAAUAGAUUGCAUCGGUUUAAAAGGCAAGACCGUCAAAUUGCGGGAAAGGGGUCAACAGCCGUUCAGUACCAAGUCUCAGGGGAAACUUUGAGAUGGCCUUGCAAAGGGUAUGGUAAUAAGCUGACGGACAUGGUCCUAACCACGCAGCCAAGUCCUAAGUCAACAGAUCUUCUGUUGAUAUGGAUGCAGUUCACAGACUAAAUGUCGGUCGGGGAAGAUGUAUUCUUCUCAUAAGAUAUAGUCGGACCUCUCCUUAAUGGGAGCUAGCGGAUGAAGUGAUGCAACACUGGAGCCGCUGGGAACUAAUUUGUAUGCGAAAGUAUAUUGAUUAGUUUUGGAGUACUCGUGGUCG;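 further: selection with 25 µg/mL kanamycin versus none on LB agar overnight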
Settings: 37 °C
The answer should be a number; do not append a unit.

Example cases with answers are listed next.
UCCGAGCAAUAUUACGAAAA :: -1.07
CAAUAGCAAUAUUACGGAAA :: -2.83
UAACAGCAAUAUUACGAUAA :: -0.209

Need self-splicing fitness (ln), item CCAGAGCAAUAUUACGGGGG
-2.44

Lookup AUUCAGCAAUAUUACGCUGC
-2.35

====

Some sequences, each annotated with its measured self-splicing fitness (ln).
Assay: self-splicing fitness, log relative to wild type (ln ratio); higher = more splicing; Tetrahymena group I intron in knt gene, E. coli kanamycin selection, DiMSum; sequences stand for … in CUCUCU…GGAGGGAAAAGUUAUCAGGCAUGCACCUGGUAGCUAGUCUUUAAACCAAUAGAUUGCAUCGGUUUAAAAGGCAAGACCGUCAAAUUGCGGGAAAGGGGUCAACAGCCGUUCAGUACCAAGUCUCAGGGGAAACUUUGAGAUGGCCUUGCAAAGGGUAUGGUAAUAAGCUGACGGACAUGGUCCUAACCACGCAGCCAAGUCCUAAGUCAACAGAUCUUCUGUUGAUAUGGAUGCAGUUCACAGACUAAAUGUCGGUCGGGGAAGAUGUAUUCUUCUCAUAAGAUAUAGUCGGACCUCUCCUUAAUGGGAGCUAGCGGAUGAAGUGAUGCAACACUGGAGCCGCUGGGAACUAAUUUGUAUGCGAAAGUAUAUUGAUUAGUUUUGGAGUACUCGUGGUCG
Details: 37 °C

UUUCAGCAAUAUUACGAGUU :: -2.06

Next, consider the following sequence.
Need self-splicing fitness (ln), item AGGCAGCAAUAUUACGUCAA
-0.465

====

Assay: self-splicing fitness, log relative to wild type (ln ratio); higher = more splicing; Tetrahymena group I intron in knt gene, E. coli kanamycin selection, DiMSum; sequences stand for … in CUCUCU…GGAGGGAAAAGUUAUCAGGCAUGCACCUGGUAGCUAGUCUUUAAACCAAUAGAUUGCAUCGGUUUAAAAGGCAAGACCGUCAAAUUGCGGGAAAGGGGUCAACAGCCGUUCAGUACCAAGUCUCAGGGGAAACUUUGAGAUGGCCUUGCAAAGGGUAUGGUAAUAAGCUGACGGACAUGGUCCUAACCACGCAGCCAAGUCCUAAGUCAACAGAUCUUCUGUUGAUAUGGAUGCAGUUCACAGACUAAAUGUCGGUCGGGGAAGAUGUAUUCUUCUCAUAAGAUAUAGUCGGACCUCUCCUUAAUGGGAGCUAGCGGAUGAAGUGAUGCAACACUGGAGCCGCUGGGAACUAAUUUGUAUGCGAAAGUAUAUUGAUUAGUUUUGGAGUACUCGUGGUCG
Settings: 30 °C
Some sequences, each annotated with its measured self-splicing fitness (ln).
The answer should be a number; do not append a unit.

Example cases with answers are listed next.
ACCAAGCAAUAUUACGGUCA :: -1.36
GGCCAGCAAUAUUACGCAUG :: -2.27
GCCCAGCAAUAUUACGUACA :: -2.17
UCACAGCAAUAUUACGGAGC :: -2.68
UUAAAGCAAUAUUACGGUUU :: -2.12

Need self-splicing fitness (ln), item GCGCAGCAAUAUUACGAGUU
-0.986

Lookup CGACAGCAAUAUUACGGGGA
-3.22

Lookup CCACAGCAAUAUUACGCCUC
-2.9

Lookup CAUCAGCAAUAUUACGACAC
-1.78

====

Experiment: self-splicing fitness, log relative to wild type (ln ratio); higher = more splicing; Tetrahymena group I intron in knt gene, E. coli kanamycin selection, DiMSum; sequences stand for … in CUCUCU…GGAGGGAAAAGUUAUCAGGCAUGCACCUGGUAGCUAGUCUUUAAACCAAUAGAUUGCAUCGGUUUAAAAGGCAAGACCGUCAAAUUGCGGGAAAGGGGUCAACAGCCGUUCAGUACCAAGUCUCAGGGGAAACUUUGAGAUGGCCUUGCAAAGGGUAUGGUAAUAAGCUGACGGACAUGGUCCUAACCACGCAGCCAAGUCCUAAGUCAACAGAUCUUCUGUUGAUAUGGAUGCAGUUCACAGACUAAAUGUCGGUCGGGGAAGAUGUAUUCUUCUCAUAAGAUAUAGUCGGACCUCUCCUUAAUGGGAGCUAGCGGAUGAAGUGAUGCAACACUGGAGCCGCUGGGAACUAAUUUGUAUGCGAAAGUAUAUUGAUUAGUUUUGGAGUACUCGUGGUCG
Details: 37 °C
readoutLabel: self-splicing fitness (ln)

Need self-splicing fitness (ln), item GAGUAGCAAUAUUACGCUAA
-1.97

====

Experiment: self-splicing fitness, log relative to wild type (ln ratio); higher = more splicing; Tetrahymena group I intron in knt gene, E. coli kanamycin selection, DiMSum; sequences stand for … in CUCUCU…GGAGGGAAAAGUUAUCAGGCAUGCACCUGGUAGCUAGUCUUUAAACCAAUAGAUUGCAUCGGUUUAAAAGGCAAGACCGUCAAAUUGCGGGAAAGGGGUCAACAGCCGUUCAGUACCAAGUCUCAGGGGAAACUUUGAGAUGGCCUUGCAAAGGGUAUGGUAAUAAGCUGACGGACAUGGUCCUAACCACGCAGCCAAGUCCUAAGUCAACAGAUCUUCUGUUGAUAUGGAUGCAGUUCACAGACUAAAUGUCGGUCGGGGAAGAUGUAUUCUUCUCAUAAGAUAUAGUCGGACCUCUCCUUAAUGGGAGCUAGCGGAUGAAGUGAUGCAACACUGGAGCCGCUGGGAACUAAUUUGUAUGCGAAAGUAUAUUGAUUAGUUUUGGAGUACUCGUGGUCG
Conditions: 30 °C
Rule: self-splicing fitness (ln) of -3 or more gives Criterion met; anything lower gives Criterion not met.

Please review the entries below; each comes with its answer.
AUCCAGCAAUAUUACGAUUU :: Criterion met
GAGCAGCAAUAUUACGGUGG :: Criterion not met
CUCAAGCAAUAUUACGUCCA :: Criterion met
UGGUAGCAAUAUUACGUUGA :: Criterion met
ACCAAGCAAUAUUACGCGAC :: Criterion not met
AUCGAGCAAUAUUACGGAGA :: Criterion met

Now for a further sequence.
self-splicing fitness (ln) >= -3 for CGGAAGCAAUAUUACGGCUU ?
Criterion not met

====

Experiment: self-splicing fitness, log relative to wild type (ln ratio); higher = more splicing; Tetrahymena group I intron in knt gene, E. coli kanamycin selection, DiMSum; sequences stand for … in CUCUCU…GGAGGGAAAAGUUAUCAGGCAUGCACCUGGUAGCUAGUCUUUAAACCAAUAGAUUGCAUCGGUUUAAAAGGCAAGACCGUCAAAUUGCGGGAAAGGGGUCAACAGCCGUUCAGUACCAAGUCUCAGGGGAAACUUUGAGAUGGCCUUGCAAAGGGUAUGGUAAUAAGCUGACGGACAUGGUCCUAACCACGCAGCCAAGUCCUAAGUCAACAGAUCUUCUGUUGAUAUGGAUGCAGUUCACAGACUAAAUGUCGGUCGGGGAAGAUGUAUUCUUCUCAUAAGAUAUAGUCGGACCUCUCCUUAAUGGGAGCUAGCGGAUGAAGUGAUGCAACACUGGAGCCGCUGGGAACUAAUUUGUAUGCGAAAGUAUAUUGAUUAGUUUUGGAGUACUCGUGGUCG
Settings: 30 °C
readoutLabel: self-splicing fitness (ln)
The answer should be a number; do not append a unit.

Example cases with answers are listed next.
GGAUAGCAAUAUUACGAAGA :: -2.93
ACUGAGCAAUAUUACGAAAU :: -2.94
UGUGAGCAAUAUUACGCUAC :: -3
CCCGAGCAAUAUUACGGCCU :: -2.93

Next, consider the following sequence.
Need self-splicing fitness (ln), item AAACAGCAAUAUUACGGAUA
-2.99

====

Some sequences, each annotated with its measured self-splicing fitness (ln).
Test: self-splicing fitness, log relative to wild type (ln ratio); higher = more splicing; Tetrahymena group I intron in knt gene, E. coli kanamycin selection, DiMSum; sequences stand for … in CUCUCU…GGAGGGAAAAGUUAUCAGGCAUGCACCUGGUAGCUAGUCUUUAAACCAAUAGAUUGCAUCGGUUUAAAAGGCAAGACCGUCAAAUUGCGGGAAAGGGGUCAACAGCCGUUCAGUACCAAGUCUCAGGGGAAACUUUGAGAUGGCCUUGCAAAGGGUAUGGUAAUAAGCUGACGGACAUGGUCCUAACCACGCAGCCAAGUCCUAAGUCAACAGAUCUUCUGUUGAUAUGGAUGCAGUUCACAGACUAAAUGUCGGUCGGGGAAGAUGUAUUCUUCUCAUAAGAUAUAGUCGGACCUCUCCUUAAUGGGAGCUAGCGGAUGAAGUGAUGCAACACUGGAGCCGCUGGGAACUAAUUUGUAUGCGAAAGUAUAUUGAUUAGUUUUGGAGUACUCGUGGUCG
Conditions: 30 °C
The answer should be a number; do not append a unit.

CUGCAGCAAUAUUACGGCCA :: -1.25

Need self-splicing fitness (ln), item GCUAAGCAAUAUUACGUUAG
-2.7

Lookup UGUUAGCAAUAUUACGAUGG
-1.71
